# Test system: SK-OV-3 ovarian
# test: NCI-60 one-dose screen, 48 h
# run_parameters: 10 µM unless noted
Compounds without any hit were thinned out: in the full panel of roughly 83,000, 20% have a hit. Active and inactive are the calls of the source. Rule for the calls: active = growth percent below 10; inactive = the rest.
Labels: 1 (yes) (active), 0 (no) (inactive)

[
  {
    "molecule": "O=C1c2c[n+](Cc3ccccc3)ccc2-c2nc3ccccc3c3ccnc1c23",
    "label_class": "1 (yes)"
  },
  {
    "molecule": "COc1ccc(-c2nn(-c3ccccc3)cc2/C=C2\\SC(=O)NC2=O)cc1",
    "label_class": "0 (no)"
  },
  {
    "molecule": "Cn1c(=O)c2[nH]c(C(O)C(O)C(O)C(O)CO)nc2n(C)c1=O (stereo not given)",
    "label_class": "0 (no)"
  },
  {
    "molecule": "Cl/C(=N\\Nc1ccccc1)c1ccccc1",
    "label_class": "0 (no)"
  },
  {
    "molecule": "O=C(Nc1cccc2[nH]c(C(F)(F)F)nc12)c1ccc(Br)cc1F",
    "label_class": "0 (no)"
  },
  {
    "molecule": "COc1ccc2nc3cc(Cl)ccc3c(N3CCN(c4nccc(NCc5ccccc5)n4)CC3)c2c1",
    "label_class": "0 (no)"
  },
  {
    "molecule": "O=C(CNC1C2CC3CC(C2)CC1C3)Sc1nnc2sc3ccccc3n12 (stereo not given)",
    "label_class": "0 (no)"
  },
  {
    "molecule": "CN1CCCCC1CCN1c2ccccc2Sc2ccc(Cl)cc21 (stereo not given)",
    "label_class": "0 (no)"
  },
  {
    "molecule": "CCOC(=O)c1cnc2ccc(Br)cc2c1Nc1cccc(S(=O)(=O)NC)c1",
    "label_class": "0 (no)"
  },
  {
    "molecule": "CCCCCN(CCCCC)CCC[C@@H](C)[C@H]1CC[C@H]2[C@@H]3[C@H](OCCCN)C[C@@H]4C[C@H](OCCCN)CC[C@]4(C)[C@H]3C[C@H](OCCCN)[C@]12C",
    "label_class": "0 (no)"
  },
  {
    "molecule": "c1ccc(-c2nc(N3CCOCC3)c3c4c(sc3n2)CCCCC4)nc1",
    "label_class": "0 (no)"
  },
  {
    "molecule": "CCN(CC)CCC(=O)c1ccc(OC)c2ccccc12",
    "label_class": "0 (no)"
  },
  {
    "molecule": "COc1cc(-c2nc3ccccc3s2)ccc1NC(=O)COc1ccc(Cl)cc1",
    "label_class": "0 (no)"
  },
  {
    "molecule": "Cc1ccc2c(NCCCN(C)C)c3c(C)nn(C)c3nc2c1",
    "label_class": "0 (no)"
  },
  {
    "molecule": "CCOC(=O)c1c2c(n3ccc(NC(=O)CCN4CCOCC4)cc13)C(=O)c1ncccc1C2=O",
    "label_class": "0 (no)"
  },
  {
    "molecule": "COc1ccc(CN2C(=O)/C(=C\\c3cc(OC)c(OC)c(OC)c3)c3cc(OC)ccc32)cc1",
    "label_class": "1 (yes)"
  },
  {
    "molecule": "O=C1C=CC(=O)N1c1ccc(Cc2ccc(N3C(=O)C=CC3=O)cc2)cc1",
    "label_class": "0 (no)"
  },
  {
    "molecule": "O=c1c(/C=C/c2ccco2)nnc(SCCN2CCOCC2)n1/N=C/c1ccc([N+](=O)[O-])cc1",
    "label_class": "0 (no)"
  },
  {
    "molecule": "O=C(/C=C/c1ccc(B(O)O)cc1)/C=C/c1ccc(B(O)O)cc1",
    "label_class": "0 (no)"
  },
  {
    "molecule": "O=C(Cc1ccccc1)c1ccc(Cl)cc1",
    "label_class": "0 (no)"
  },
  {
    "molecule": "COc1ccc2nc3cc(Cl)ccc3c(N3CCN(c4ccnc(N5CCN(C)CC5)n4)CC3)c2c1",
    "label_class": "0 (no)"
  },
  {
    "molecule": "COc1c(Cl)cc(Cl)cc1Cl",
    "label_class": "0 (no)"
  },
  {
    "molecule": "COc1cc(OC)c(/C=C/C(=O)c2c(OC)cc(OC)cc2OC)c(OC)c1",
    "label_class": "0 (no)"
  },
  {
    "molecule": "CCCCCCCCCCCCCC1=NCCN1CCO",
    "label_class": "0 (no)"
  },
  {
    "molecule": "COc1cccc(-n2cc(-c3nc(Nc4cc(C)[nH]n4)c4ccccc4n3)nn2)c1",
    "label_class": "0 (no)"
  }
]

---

# Tested on: MALME-3M melanoma
# test: NCI-60 one-dose screen, 48 h
# run_parameters: 10 µM unless noted
The panel holds about 83,000 compounds, 20% with a hit somewhere; the sample as a whole holds those more often. The source made the active and inactive calls. How the source made its calls: active means growth percent below 10; inactive means the rest.
Labels: 1 for active, 0 for inactive

[
  {
    "compound": "O=C(CO[N+](=O)[O-])Nc1ccc(C(=O)/C=C/c2ccc(Cl)cc2)cc1",
    "label_class": 0
  },
  {
    "compound": "COc1cc(-c2c3sc(=O)[nH]c3nc3c2c(=O)[nH]n3C(C)C)cc2c1OCO2",
    "label_class": 0
  },
  {
    "compound": "COc1ccc2nc3cc(Cl)ccc3c(N3CCN(c4nccc(Nc5ccccc5)n4)CC3)c2c1",
    "label_class": 0
  },
  {
    "compound": "Cn1cc(-c2nc(-c3c[nH]c4ccccc34)cs2)c2cccnc21",
    "label_class": 0
  },
  {
    "compound": "c1ccc2c(Nc3cccc4ccccc34)cccc2c1",
    "label_class": 0
  },
  {
    "compound": "Cc1ccc(SCN2CCN(c3cccc(Cl)c3)CC2)cc1",
    "label_class": 0
  },
  {
    "compound": "COc1cc(C2C(C(=O)c3cccs3)=C(O)C(=O)N2CCN2CCOCC2)cc(OC)c1OC (configuration not stated)",
    "label_class": 0
  },
  {
    "compound": "C=C1CC2(OC1=O)C(=O)N(CCCCCCCCCCCCN1C(=O)C3(CC(=C)C(=O)O3)c3ccccc31)c1ccccc12 (configuration not stated)",
    "label_class": 0
  },
  {
    "compound": "Oc1cccc(Nc2nccc(-c3ccc4ccccc4c3)n2)c1",
    "label_class": 0
  },
  {
    "compound": "CN1CCN(Cc2ccc(NC(=O)c3cncc(C#Cc4cnc(N)c5cccnc45)c3)cc2C(F)(F)F)CC1",
    "label_class": 1
  },
  {
    "compound": "Cn1c2ccccc2c2c3[nH]c(=O)[nH]c(=O)c3c3c4ccccc4n(C)c3c21",
    "label_class": 0
  },
  {
    "compound": "CC/C(=C(\\c1ccccc1)c1ccc(OCCNC)cc1)c1ccccc1",
    "label_class": 1
  },
  {
    "compound": "O=C(Cc1ccccc1)c1ccc(Cl)cc1",
    "label_class": 0
  },
  {
    "compound": "c1c2c(cc3c1OCO3)Cc1cc3c(cc1Cc1cc4c(cc1C2)OCO4)OCO3",
    "label_class": 0
  },
  {
    "compound": "CS(=O)CCCCCN=C=S (configuration not stated)",
    "label_class": 1
  },
  {
    "compound": "CCCCCCCCCC(=O)Oc1ccc(/C(=C(/C)Cc2cccc(OC)c2)c2ccc(OCCN(C)C)cc2)cc1",
    "label_class": 0
  },
  {
    "compound": "COc1cc(NC(N)=NCC(C)(C)COc2ccc(C(F)(F)F)cc2)cnc1C#N",
    "label_class": 0
  },
  {
    "compound": "Nc1nc(SCc2ccccc2)c2ncn(C3CCCC3)c2n1",
    "label_class": 0
  },
  {
    "compound": "CCCCCCCCCCCCNC(=O)[C@H]1CSC(c2ccc(OC)c(F)c2)N1 (some centres not stated)",
    "label_class": 1
  },
  {
    "compound": "O=[N+]([O-])c1cccc(C2CC(c3ccccc3)=Nc3ccccc3S2)c1 (configuration not stated)",
    "label_class": 0
  },
  {
    "compound": "CC[C@H](Nc1ncnc(N)c1C(N)=O)c1nc2cccc(NCc3ccc(C(=O)NO)cc3)c2c(=O)n1-c1ccccc1",
    "label_class": 0
  },
  {
    "compound": "COC1=CC(=O)C(OC)=C(OC)C1=O",
    "label_class": 0
  }
]

---

# Test system: UO-31 renal
# test: NCI-60 one-dose screen, 48 h (100 = growth as untreated, 0 = no growth, -100 = all killed)
# run_parameters: 10 µM unless noted
This is part of a sample that, as a whole, favours compounds with a hit. Of some 83,000 tested, about 20% had one in any assay.
# label = condition met if growth >= 60% else condition not met

[
  {
    "compound": "COc1ccc(C(=O)/C=C/c2cc3ccccc3[nH]c2=O)cc1",
    "label_class": "condition not met"
  },
  {
    "compound": "CC(=O)O[C@H]1CC[C@]2(C)[C@H]3CC[C@@H]4[C@H]5[C@H](C(C)C)CC[C@]5(C(=O)OCC(CO)(CO)N=C(N)N)CC[C@@]4(C)[C@]3(C)CC[C@H]2C1(C)C",
    "label_class": "condition not met"
  },
  {
    "compound": "CC(C)n1cc2c(N)ncnc2n1",
    "label_class": "condition met"
  },
  {
    "compound": "COc1cnc2c(c1)C(=O)c1c-2n(CCCN2CCN(C)CC2)c(=O)c2cc([N+](=O)[O-])ccc12",
    "label_class": "condition not met"
  },
  {
    "compound": "C[C@]12C[C@@H](c3ccoc3)OC(=O)[C@@H]1CC[C@]1(C)[C@@H]2CC[C@@H](O)[C@]1(C)O",
    "label_class": "condition met"
  },
  {
    "compound": "CC1=C(C)C(=O)OC([C@](C)(O)[C@]2(O)CC[C@@]3(O)[C@@H]4C[C@H]5O[C@]56CC=CC(=O)[C@]6(C)[C@H]4CC[C@]23COC(=O)c2ccc(C)o2)C1 (some centres undefined)",
    "label_class": "condition not met"
  },
  {
    "compound": "CCCCCCCCCCCCCCCCCCNC(=O)[C@H]1CSC(c2ccc(OC)c(F)c2)N1 (some centres undefined)",
    "label_class": "condition met"
  },
  {
    "compound": "CCN(CC)C12CCCCC1(C)C(C#N)(C#N)C(C#N)=C(N)O2 (centres undefined)",
    "label_class": "condition met"
  },
  {
    "compound": "CC1(C)OCC2OC3(C(=O)O)OC(C)(C)OC3C2O1 (centres undefined)",
    "label_class": "condition met"
  },
  {
    "compound": "CCOC(=O)Cc1cnn(C)c1NC(=O)c1ccc(Cl)cc1NC(C)=O",
    "label_class": "condition met"
  },
  {
    "compound": "Cc1cc(=O)oc2cc(Oc3nc(-c4ccc(Cl)cc4)cn4c(-c5ccc(Cl)cc5)cnc34)ccc12",
    "label_class": "condition met"
  },
  {
    "compound": "CC1=C(NCCN2CCCC2)C(=O)c2c(OCc3ccc(F)c(Cl)c3)cccc2C1=O",
    "label_class": "condition not met"
  },
  {
    "compound": "CCCCCCCCCC(=O)Oc1ccc(/C(=C(/C)c2ccccc2)c2ccc(OCCN3CCCC3)cc2)cc1",
    "label_class": "condition not met"
  },
  {
    "compound": "COc1nc2c(cc1S(=O)(=O)c1ccccc1)CCc1c-2cnn1Cc1ccccc1",
    "label_class": "condition not met"
  },
  {
    "compound": "COc1ccc2nc3cc(Cl)ccc3c(N3CCN(c4nccc(NCc5ccccc5)n4)CC3)c2c1",
    "label_class": "condition not met"
  },
  {
    "compound": "COc1ccc(/C=c2/c(=O)[nH]c3nc4sc(C)c(C)c4c(=O)n23)cc1",
    "label_class": "condition met"
  },
  {
    "compound": "COc1ccc(S(=O)(=O)NCCCNc2nccc(-c3c(-c4cccc(N)c4)nc4sccn34)n2)cc1",
    "label_class": "condition met"
  }
]

Cited source: PubChem BioAssay (NCI)
